- assay system: Pro-Link-tagged Human GLP-1R (human) (UniProt P43220)
- Sequence (P43220 24-463): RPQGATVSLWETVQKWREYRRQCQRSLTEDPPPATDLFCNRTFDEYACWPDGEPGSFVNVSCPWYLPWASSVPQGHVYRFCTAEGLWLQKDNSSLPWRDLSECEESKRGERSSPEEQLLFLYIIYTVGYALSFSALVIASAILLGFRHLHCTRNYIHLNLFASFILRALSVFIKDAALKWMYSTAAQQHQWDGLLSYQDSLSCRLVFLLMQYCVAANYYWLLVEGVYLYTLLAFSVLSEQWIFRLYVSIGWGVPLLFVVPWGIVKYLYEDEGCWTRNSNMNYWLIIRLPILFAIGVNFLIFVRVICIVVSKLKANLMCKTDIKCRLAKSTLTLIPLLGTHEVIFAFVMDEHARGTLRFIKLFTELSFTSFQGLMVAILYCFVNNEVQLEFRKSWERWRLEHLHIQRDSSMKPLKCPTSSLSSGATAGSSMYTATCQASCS
- assay text: cell-based or functional assay
Starred links: 1 amine or outer side, 2 acyl side, 3 side chain; linkers in the order of their positions; H or OH if unused. Non-standard residues stand in square brackets, D forms with d. Groups on a side chain read outwards from the residue. No end group written: not given here. *: point of attachment. C20 diacid = O=C(O)CCCCCCCCCCCCCCCCCCC(=O)*; αMePhe(2-F) = C[C@](N)(Cc1ccccc1F)C(=O)O; γGlu = O=C(O)[C@H](CCC(=O)[*:2])N[*:1]; NMeY = CN[C@@H](Cc1ccc(O)cc1)C(=O)O; αMeF = C[C@](N)(Cc1ccccc1)C(=O)O; αMeL = CC(C)C[C@](C)(N)C(=O)O; Orn = NCCC[C@H](N)C(=O)O; AEEA = NCCOCCOCC(=O)O; Aib = CC(C)(N)C(=O)O
metric name: % Stimulation Max (%)
The figure you give is taken to be in %; do not add the unit.

Exercise: Please look up its % Stimulation Max: Y[Aib]QGTFTSDYSI[αMeL]LDKQAAKQFVEWLLA[Aib]GPSSGEPPPSEG (not fully specified (residue 20)) [Example 329]
Solution: 74.5

Exercise: Please look up its % Stimulation Max: Y[Aib]QGTFTSDYSI[αMeL]LDKIAAK([AEEA-AEEA-γGlu-C20 diacid])[Orn]FVQYLIAGGPSSGEPPPSEG-NH2 [Example 308]
Solution: 41.4

Exercise: Please look up its % Stimulation Max: [NMeY][Aib]QGT[αMeF]TSDYSSLLDKIAAK([AEEA-AEEA-γGlu-C20 diacid])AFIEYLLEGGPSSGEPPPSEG-NH2 [Example 297]
Solution: 33.5

Exercise: Please look up its % Stimulation Max: Y[Aib]QGT[αMePhe(2-F)]TSDYSKLLDKQAQK([AEEA-γGlu-C20 diacid])QFIEYLIEGGPSSGEPPPSEG-NH2 [Example 309]
Solution: 47.2

Exercise: Please look up its % Stimulation Max: [NMeY][Aib]QGT[αMeF]TSDYSILLDKQAAK([AEEA-AEEA-γGlu-C20 diacid])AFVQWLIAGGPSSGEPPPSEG-NH2 [Example 301]
Solution: 59.1

Exercise: Please look up its % Stimulation Max: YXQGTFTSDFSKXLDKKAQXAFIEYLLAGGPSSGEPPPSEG (synthetic construct; SITE 2: note = 2-Aminoisobutyric Acid; SITE 13: note = alpha-methyl-leucine; SITE 17: note = Lysine is chemically modified through conjugation of the epsilon-amino group of the Lysine side chain with (2-[2-(2-Amino-ethoxy)-ethoxy]-acetyl)-(gamma-Glu)-CO-(CH2) 18-CO2H; SITE 20: n) [Example 1]
Solution: 17.3

Exercise: Please look up its % Stimulation Max: Y[Aib]QGTFTSDYSK[αMeL]LDKK([AEEA-γGlu-C20 diacid])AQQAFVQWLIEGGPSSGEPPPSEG-NH2 [Example 315]
Solution: 29.7

Exercise: Please look up its % Stimulation Max: YXQGTFTSDFSIXLDKKAQXAFIEYLLEGGPSSGEPPPSEG (synthetic construct; SITE 2: note = 2-Aminoisobutyric Acid; SITE 13: note = alpha-methyl-leucine; SITE 17: note = Lysine is chemically modified through conjugation of the epsilon-amino group of the Lysine side chain with (2-[2-(2-Amino-ethoxy)-ethoxy]-acetyl)-(gamma-Glu)-CO-(CH2) 18-CO2H; SITE 20: n) [Example 288]
Solution: 18

Exercise: Please look up its % Stimulation Max: Y[Aib]QGT[αMePhe(2-F)]TSDYSILLDKIAQK([AEEA-γGlu-C20 diacid])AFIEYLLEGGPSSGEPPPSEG-NH2 [Example 293]
Solution: 54.6

Exercise: Please look up its % Stimulation Max: [NMeY][Aib]QGT[αMeF]TSDYSILLDKIAAK([AEEA-AEEA-γGlu-C20 diacid])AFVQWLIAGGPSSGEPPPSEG-NH2 [Example 300]
Solution: 40.3
